Data origin, for the record: the supplement of paper PMC10567573

B1: KCNK9 (parent)
chain: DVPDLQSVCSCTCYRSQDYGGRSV

# Variants of: B1
# testMethodNotes: protein stability index of a GFP-peptide fusion (GPS, HEK-293T) (PSI 1-6); higher = more stable;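 note: lentivirally expressed fusions sorted by FACS into six bins by GFP to DsRed ratio, PSI derived from sequencing read proportions per bin multiplied by bin number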
# conditionContext: c terminus: a fixed tail appended
Please mark 1 if the recorded protein stability index is equal to or greater than 2, and 0 if it falls below.

| variantLabel | answerLabel |
| --- | --- |
| S23A | 0 |
| C11D | 1 |
| D18F | 0 |
| R15L | 0 |
| S7C | 0 |
| D1S | 1 |
| R15D | 1 |
| V2T | 1 |
| S16C | 1 |
| C13A | 1 |
| C13Q | 1 |
| L5P | 1 |
| C9D | 1 |
| C13M | 0 |
| V24I | 1 |
| Y19T | 1 |
| C9G | 0 |
| T12C | 0 |
| D18M | 0 |
| Q6E | 0 |
| D18R | 0 |
| C9A | 1 |
| Y19R | 1 |
| T12I | 0 |
| R22A | 0 |
| Y19I | 1 |
| C13V | 1 |
| S16R | 0 |
| G21A | 0 |
| D1Q | 1 |
| Q6H | 0 |
| C9K | 1 |
| C9P | 0 |
| G21S | 1 |
| R15Q | 0 |
| D4T | 1 |
| C11N | 1 |
| C11F | 1 |
| S16P | 1 |
| Y14G | 1 |
| C13R | 1 |
| V2Q | 0 |
| L5D | 1 |
| D18V | 0 |
| D1I | 0 |
